Target: Luciferin 4-monooxygenase (Photinus pyralis) (UniProt P08659)
Sequence (P08659 whole entry, looked up): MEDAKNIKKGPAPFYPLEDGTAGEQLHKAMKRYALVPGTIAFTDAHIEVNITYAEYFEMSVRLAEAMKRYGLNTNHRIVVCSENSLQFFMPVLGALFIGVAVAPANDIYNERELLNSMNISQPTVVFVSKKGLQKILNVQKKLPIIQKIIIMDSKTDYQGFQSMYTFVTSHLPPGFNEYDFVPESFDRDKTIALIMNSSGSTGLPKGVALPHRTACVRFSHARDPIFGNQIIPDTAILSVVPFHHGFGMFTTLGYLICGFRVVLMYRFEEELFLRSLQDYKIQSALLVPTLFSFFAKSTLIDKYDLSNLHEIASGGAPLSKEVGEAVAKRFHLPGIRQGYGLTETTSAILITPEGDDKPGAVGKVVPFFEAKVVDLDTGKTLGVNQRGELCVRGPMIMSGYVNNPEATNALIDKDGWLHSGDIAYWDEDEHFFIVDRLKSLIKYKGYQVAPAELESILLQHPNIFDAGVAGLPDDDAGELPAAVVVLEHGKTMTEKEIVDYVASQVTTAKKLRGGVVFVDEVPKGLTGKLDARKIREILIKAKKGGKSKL
Protocol notes: inhibition of purified Photinus pyralis luciferase – biochemical, luminescence, purified enzyme, 2006 set, primary screen (AID 1141);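 also: cell-free assay with purified firefly luciferase at 100 ng per well in PBS; test concentration not given here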
Setup conditions: purified firefly luciferase, SteadyGlo luminescence, 30 min; higher = more signal, called active from +8 up or from −8 down
Heads up, the class ranges for z-score are class 1: < -0.6; class 2: ≥ -0.6 and < 0.3; class 3: ≥ 0.3

[in] Entry COC(=O)[C@@]1(Cc2ccc(F)cc2)[C@H]2c3cc(C(=O)N4CCCC4)n(CCc4ccccn4)c3C[C@H]2CN1C(=O)c1ccccc1 belongs to which category?
[out] class 3

New cases:
[in] Assign a category based on measured z-score for COc1ccc(C(O)C2C=CC3C(=O)N(c4ccccc4)C(=O)C3N2Nc2ccc([N+](=O)[O-])cc2)c2ccccc12 (stereo not drawn) and give only the class name.
[out] class 3

[in] Also need O=C(NC1CC1)[C@@H]1c2ccccc2C(=O)N(CC23CC4CC(CC(C4)C2)C3)[C@H]1c1ccc(CO)cc1 , thanks.
[out] class 3

[in] Moving on to CC(=O)c1ccc(C(O)C2C=CC3C(=O)N(c4ccccc4)C(=O)C3N2Nc2ccc(C(C)C)cc2)cc1 (stereo not drawn)
[out] class 1

[in] Now consider O=C1C2C=CC(C(O)c3c(F)cccc3Cl)N(Nc3ccc([N+](=O)[O-])cc3)C2C(=O)N1c1ccccc1 (stereo not drawn) .
[out] class 3

[in] Next compound up: CC(C)C[C@@H]1NC(=O)[C@@]23C(=O)N[C@@H](Cc4ccccc4)C2[C@H](C)[C@@]2(C)O[C@H]2C3/C=C/C/C=C\CNC(=O)CNC1=O (stereo partly drawn)
[out] class 2

[in] Try the compound COc1ccc([Si](C)(C)[C@@H]2[C@@H](CC(=O)N3Cc4ccccc4C[C@H]3CO)O[C@]3(C(=O)N(Cc4ccc(N5CCOC5=O)cc4)c4ccccc43)[C@H]2C)cc1
[out] class 1

---

Target: Neurogenic locus notch homolog protein 3 (Homo sapiens)
Protocol notes: small molecules binding NOTCH3 protein – biochemical, 635/667 nm fluorescence, primary screen (AID 1096)
Setup conditions: small-molecule microarray, 635 nm fluorescence, higher = more signal
Readings of composite z-score for the listed compounds
Respond using a number only.

[in] Name the recorded composite z-score for COC(=O)[C@@]1(Cc2ccc(F)cc2)[C@H]2c3cc(C(=O)N4CCCC4)n(CCc4ccccn4)c3C[C@H]2CN1C(=O)c1ccccc1 .
[out] 0.572

[in] Now consider COc1ccc(NN2C(C(O)c3ccc(I)cc3)C=CC3C(=O)N(C4CCCCC4)C(=O)C32)cc1 (stereo not drawn) .
[out] 1.03

[in] COC(=O)[C@@]1(Cc2ccccc2)N=C(c2ccc(OCCCO)cc2)O[C@H]1c1ccccc1CN=[N+]=[N-] , same question.
[out] 0.129

New cases:
[in] // returns reported composite z-score for input CCCN1C(=O)[C@]2(CCC(=O)OC(C)(C)C)N=C(c3ccc(OCCCO)cc3)O[C@@H]2c2ccccc21
[out] 0.571

[in] Same question for CCOC(=O)C1=C[C@@H](C(C)(C)C)N(S(=O)(=O)c2ccc(C)cc2)[C@H]1c1ccc(C#N)cc1 please.
[out] 1.01

[in] // repeat for CC[C@@H]1C=C(C(=O)O)[C@H](c2ccc(OC)cc2)N1S(=O)(=O)c1ccc(C)cc1 and report
[out] 0.624

[in] Record: COC(=O)C1(Cc2ccccc2)C=C2C(=C(C)C(=O)C2C)CN1 (stereo not drawn)
[out] -0.016

[in] Try this compound too: CC(C)C(=C=CC[C@H](O)c1ccccc1OCCO)C[C@H](O)c1cc(Cl)cc(Cl)c1O
[out] 1.03
